Cited source: paper PMC5513037

# target-under-test: ARAF (Homo sapiens)
# Construct: endogenous in cells
# experimental-protocol: KAM-matrix competition in K562 lysate
# run-conditions: KAM 0.001-10 uM, read-out: RB50 (the source's name)
measured-metric: IC50

Data request: Specify reported IC50 for the molecule shown: `N#CCc1ccc(Nc2nc(NCCCN)cc(Nc3cc(C4CC4)[nH]n3)n2)cc1`
Data returned: > 10 µM

---

# target-under-test: BRDT (Homo sapiens, UniProt Q58F21)
pIC50: −log10 of the molar value.
measured-metric: pIC50

Data request: Specify reported pIC50 for the compound shown: `Cc1ccc(NC(=O)c2ccc(CN3CCN(C)CC3)cc2)cc1Nc1nccc(-c2cccnc2)n1`
Data returned: < 5.00

---

# target-under-test: MELK (Homo sapiens)
# Construct: endogenous in cells
# Sequence (Q14680 whole entry): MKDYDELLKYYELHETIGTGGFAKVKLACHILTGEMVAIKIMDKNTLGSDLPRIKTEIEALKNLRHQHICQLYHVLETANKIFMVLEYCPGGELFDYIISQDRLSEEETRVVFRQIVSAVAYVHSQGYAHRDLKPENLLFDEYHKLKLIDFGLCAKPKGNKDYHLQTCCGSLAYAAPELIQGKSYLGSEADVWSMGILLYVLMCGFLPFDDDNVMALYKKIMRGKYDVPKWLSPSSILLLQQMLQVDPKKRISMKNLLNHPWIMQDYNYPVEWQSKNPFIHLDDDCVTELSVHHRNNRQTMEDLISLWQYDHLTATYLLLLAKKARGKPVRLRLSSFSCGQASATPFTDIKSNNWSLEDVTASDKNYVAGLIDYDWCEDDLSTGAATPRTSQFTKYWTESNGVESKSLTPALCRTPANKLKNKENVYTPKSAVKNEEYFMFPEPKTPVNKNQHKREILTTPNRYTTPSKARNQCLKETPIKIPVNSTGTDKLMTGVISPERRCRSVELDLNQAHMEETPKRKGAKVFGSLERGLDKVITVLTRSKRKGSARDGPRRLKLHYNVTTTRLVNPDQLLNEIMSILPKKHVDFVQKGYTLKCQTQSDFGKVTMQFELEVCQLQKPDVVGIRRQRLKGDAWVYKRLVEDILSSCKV
# experimental-protocol: KAM-matrix competition in K562 lysate
# run-conditions: read-out: RB50 (the source's name)
# Description: Supplement 12953_2017_125_MOESM1_ESM.zip/MS_Supp Info.xlsx, sheet "KAM" | column: 10 uM KAM; 1 uM KAM; 0.1 uM KAM; 0.01 uM KAM; 0.001 uM KAM; RB50
measured-metric: pIC50
Convention used: pIC50 is expressed as -log10 of the molar concentration.

Data request: Specify reported pIC50 for the compound shown: `N#CCc1ccc(Nc2nc(NCCCN)cc(Nc3cc(C4CC4)[nH]n3)n2)cc1`
Data returned: 6.03

---

# target-under-test: TYK2 (Homo sapiens, UniProt P29597)
# Construct: endogenous in cells
# Sequence (P29597 whole entry): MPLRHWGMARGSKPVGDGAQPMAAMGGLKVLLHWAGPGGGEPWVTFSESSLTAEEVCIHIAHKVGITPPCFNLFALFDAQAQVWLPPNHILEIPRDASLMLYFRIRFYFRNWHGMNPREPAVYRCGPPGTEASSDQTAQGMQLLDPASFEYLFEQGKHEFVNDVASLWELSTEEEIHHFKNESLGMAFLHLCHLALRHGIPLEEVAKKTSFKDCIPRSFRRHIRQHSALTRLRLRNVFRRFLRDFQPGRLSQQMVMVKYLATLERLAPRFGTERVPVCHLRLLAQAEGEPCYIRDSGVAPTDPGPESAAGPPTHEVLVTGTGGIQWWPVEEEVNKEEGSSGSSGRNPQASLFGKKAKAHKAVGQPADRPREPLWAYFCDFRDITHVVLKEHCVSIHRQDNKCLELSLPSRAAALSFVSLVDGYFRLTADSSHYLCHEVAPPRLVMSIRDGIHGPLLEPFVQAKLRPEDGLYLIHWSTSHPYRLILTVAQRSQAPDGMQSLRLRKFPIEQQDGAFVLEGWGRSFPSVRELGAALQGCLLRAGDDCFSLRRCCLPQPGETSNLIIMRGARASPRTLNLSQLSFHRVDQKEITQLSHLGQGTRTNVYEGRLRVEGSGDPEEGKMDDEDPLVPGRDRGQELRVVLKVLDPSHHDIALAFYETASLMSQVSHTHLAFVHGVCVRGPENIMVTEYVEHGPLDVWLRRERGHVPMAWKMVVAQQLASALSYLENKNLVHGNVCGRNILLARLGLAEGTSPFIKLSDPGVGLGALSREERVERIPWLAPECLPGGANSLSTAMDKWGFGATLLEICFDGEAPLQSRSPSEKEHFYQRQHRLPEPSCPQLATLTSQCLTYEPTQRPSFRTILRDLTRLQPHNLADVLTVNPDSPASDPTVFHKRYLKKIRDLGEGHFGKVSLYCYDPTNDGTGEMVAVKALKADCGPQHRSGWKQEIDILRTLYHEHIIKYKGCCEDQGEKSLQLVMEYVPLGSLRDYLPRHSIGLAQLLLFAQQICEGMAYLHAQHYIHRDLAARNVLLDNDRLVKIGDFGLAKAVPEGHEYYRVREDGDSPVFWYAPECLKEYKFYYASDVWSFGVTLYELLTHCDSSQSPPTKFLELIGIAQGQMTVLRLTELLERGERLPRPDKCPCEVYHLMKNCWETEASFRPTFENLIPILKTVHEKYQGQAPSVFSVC
# experimental-protocol: KAM-matrix competition in K562 lysate
# run-conditions: read-out: RB50 (the source's name)
measured-metric: pIC50
Convention used: pIC50 is expressed as -log10 of the molar concentration.

Data request: Specify reported pIC50 for the compound shown: `N#CCc1ccc(Nc2nc(NCCCN)cc(Nc3cc(C4CC4)[nH]n3)n2)cc1`
Data returned: 6.27

---

# target-under-test: PLK1 (Homo sapiens, UniProt P53350)
# Construct: endogenous in cells
# Sequence (P53350 whole entry): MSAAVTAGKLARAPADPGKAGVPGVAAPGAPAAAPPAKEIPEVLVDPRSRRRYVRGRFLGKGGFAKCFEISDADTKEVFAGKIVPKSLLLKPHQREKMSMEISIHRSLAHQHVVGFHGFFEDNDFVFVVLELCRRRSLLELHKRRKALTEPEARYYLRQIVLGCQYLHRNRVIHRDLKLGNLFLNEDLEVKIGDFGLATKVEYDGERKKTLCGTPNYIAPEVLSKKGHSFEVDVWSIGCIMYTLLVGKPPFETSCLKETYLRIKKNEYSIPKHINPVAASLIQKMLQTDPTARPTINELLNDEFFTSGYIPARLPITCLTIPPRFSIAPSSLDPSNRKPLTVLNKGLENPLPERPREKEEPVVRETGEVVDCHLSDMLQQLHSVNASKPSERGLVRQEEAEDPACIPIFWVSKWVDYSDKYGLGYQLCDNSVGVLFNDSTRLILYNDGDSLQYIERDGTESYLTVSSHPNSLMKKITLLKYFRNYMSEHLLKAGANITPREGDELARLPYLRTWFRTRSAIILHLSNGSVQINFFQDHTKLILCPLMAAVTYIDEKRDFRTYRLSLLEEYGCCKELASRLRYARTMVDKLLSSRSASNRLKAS
# experimental-protocol: KAM-matrix competition in K562 lysate
# run-conditions: KAM 0.001-10 uM, read-out: RB50 (the source's name)
# Procedure: Supplement 12953_2017_125_MOESM1_ESM.zip/MS_Supp Info.xlsx, sheet "KAM" | column: 10 uM KAM; 1 uM KAM; 0.1 uM KAM; 0.01 uM KAM; 0.001 uM KAM; RB50
pIC50: −log10 of the molar value.
measured-metric: pIC50

Data request: Specify reported pIC50 for the molecule shown: N#CCc1ccc(Nc2nc(NCCCN)cc(Nc3cc(C4CC4)[nH]n3)n2)cc1 [KAM]
Data returned: < 5.00

---

# target-under-test: WNK1 (Homo sapiens, UniProt Q9H4A3)
# Construct: endogenous in cells
# Sequence (Q9H4A3 whole entry): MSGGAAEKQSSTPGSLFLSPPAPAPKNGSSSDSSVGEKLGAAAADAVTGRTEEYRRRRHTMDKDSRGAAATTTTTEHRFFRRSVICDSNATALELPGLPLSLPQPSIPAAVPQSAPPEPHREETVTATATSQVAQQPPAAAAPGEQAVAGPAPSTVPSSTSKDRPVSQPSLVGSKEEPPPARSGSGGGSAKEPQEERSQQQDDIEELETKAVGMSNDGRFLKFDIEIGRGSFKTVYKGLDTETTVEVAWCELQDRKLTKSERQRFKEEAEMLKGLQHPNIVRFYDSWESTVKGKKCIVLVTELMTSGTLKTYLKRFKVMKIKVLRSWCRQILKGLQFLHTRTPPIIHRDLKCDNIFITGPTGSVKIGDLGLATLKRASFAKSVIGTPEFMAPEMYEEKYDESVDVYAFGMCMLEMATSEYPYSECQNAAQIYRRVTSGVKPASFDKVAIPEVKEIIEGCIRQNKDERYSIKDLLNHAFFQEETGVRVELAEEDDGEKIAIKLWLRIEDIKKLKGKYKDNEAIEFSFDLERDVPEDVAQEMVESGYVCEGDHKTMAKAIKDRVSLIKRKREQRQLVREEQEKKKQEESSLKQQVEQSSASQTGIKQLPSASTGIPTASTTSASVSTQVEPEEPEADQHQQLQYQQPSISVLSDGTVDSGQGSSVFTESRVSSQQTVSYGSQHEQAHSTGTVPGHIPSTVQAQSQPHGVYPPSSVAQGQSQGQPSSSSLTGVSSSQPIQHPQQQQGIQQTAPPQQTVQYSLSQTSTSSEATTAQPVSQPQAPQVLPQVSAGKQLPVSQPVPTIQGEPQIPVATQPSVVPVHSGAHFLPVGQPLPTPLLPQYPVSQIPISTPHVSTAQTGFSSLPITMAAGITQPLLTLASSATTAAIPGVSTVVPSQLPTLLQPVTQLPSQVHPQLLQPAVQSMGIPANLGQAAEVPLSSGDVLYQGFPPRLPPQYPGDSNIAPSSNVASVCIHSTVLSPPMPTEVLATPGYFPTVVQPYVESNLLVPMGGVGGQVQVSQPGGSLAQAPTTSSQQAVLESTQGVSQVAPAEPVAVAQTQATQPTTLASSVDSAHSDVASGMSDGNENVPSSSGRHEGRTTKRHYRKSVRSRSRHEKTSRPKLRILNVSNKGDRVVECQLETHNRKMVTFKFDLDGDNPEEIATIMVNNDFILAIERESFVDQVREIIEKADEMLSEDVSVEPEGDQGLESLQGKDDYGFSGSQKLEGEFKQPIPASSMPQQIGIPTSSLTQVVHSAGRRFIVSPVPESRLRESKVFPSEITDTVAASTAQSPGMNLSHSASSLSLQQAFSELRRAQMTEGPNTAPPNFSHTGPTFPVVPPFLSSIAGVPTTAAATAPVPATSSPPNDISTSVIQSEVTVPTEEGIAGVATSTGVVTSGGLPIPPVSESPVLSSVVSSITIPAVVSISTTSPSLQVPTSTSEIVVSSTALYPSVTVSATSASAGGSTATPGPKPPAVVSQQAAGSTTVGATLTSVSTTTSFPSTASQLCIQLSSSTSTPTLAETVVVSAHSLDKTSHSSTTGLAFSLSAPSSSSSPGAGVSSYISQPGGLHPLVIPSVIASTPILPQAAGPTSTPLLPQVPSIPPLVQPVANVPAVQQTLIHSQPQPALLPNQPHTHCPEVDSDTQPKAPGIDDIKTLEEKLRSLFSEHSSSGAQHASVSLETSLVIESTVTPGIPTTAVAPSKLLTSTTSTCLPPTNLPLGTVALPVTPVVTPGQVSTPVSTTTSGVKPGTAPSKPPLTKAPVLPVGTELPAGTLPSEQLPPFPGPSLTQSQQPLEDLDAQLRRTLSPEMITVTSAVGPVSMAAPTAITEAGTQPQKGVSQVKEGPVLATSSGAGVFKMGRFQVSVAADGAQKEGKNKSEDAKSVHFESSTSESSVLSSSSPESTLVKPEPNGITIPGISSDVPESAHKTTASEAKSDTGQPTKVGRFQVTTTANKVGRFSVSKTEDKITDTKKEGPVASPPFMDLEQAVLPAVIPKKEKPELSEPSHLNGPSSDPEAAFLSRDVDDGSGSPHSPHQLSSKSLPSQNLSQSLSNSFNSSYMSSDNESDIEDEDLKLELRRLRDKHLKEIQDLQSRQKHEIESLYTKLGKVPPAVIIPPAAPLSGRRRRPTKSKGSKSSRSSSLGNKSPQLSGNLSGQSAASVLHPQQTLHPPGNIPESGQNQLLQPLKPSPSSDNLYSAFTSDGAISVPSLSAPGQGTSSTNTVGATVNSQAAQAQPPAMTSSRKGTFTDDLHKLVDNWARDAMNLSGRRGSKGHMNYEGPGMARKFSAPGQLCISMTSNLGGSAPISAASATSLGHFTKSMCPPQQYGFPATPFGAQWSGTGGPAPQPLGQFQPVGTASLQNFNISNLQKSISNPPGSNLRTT
# experimental-protocol: KAM-matrix competition in K562 lysate
# run-conditions: KAM 0.001-10 uM, read-out: RB50 (the source's name)
pIC50: −log10 of the molar value.
measured-metric: pIC50

Data request: Specify reported pIC50 for the compound shown: N#CCc1ccc(Nc2nc(NCCCN)cc(Nc3cc(C4CC4)[nH]n3)n2)cc1 [KAM]
Data returned: < 5.00

---

# target-under-test: RPS6KC1 (Homo sapiens, UniProt Q96S38)
# Construct: endogenous in cells
# experimental-protocol: KAM-matrix competition in K562 lysate
# run-conditions: KAM 0.001-10 uM, read-out: RB50 (the source's name)
measured-metric: IC50

Data request: Specify reported IC50 for the compound shown: N#CCc1ccc(Nc2nc(NCCCN)cc(Nc3cc(C4CC4)[nH]n3)n2)cc1 [KAM]
Data returned: > 10 µM
